Origin of the recorded values: ChEMBL document CHEMBL5096238

TESTED SYSTEM: Cytochrome P450 2D6 (Homo sapiens, UniProt P10635)
Sequence (P10635 whole entry): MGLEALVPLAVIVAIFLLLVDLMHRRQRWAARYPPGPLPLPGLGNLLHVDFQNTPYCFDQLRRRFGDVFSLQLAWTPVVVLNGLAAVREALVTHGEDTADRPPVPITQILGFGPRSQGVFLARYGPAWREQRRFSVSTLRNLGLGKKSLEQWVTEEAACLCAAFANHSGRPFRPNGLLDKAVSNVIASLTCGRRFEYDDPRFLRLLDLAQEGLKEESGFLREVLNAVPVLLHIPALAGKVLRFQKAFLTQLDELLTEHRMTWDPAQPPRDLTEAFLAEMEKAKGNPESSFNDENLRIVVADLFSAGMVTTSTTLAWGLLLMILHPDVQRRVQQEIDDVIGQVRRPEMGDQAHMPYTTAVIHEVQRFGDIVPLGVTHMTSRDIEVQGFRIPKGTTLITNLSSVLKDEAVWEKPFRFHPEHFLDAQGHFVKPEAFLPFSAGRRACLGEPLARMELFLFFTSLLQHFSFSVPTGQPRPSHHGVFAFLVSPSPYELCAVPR
METHOD: Inhibition of CYP2D6 (unknown origin) in microsomes preincubated for 5 mins followed by NADPH addition by LC-MS/MS analysis
Assay type: ADME, Microsome

{"SMILES REPR": "O=C1NCCCCn2cc(cn2)-c2cnc3ccc(cc3c2)CCn2nc(ccc2=O)-c2ccc1c(C(F)(F)F)c2", "IC50": "> 10 µM"}

----------
METHOD: Cmax in Sprague-Dawley rat at 10 mg/kg, ip measured for 24 hrs by LC-MS/MS analysis
Type: ADME, organism-based
Parameters: time 24 hrs, dose 10 mg/kg, route ip
ASSAY CONDITIONS: in vivo
PARAMETER MEASURED: Cmax (ng/mL)

{"SMILES REPR": "O=C1NCCCCn2cc(cn2)-c2cnc3ccc(cc3c2)CCn2nc(ccc2=O)-c2ccc1c(C(F)(F)F)c2", "OBSERVED": 282}

----------
TESTED SYSTEM: UniProt P30530
Sequence (P30530 whole entry): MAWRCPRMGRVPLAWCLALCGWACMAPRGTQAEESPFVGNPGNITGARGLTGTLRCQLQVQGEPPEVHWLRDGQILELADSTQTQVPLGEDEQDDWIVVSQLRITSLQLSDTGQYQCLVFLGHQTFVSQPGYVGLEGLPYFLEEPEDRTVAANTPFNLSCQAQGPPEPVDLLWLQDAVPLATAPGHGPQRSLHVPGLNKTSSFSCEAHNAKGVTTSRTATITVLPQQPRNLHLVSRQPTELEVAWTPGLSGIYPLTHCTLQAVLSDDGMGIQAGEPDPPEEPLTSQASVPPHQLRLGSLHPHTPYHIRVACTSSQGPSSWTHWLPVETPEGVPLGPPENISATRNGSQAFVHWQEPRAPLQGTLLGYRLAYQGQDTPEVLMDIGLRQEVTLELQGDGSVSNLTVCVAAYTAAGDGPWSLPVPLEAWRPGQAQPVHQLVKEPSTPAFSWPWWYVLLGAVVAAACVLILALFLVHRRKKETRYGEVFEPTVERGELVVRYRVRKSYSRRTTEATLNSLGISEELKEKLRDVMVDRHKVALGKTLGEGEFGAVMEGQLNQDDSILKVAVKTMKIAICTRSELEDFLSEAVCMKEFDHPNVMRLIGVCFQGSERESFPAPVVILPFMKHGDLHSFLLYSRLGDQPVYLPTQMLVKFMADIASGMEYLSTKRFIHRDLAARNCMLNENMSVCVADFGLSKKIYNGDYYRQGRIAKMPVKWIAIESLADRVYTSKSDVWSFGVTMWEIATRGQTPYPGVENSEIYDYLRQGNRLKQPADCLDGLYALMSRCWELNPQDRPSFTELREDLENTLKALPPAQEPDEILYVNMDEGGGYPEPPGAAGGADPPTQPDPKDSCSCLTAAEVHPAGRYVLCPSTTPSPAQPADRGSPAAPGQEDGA

{"SMILES REPR": "O=C1NCCCCn2cc(cn2)-c2cnc3ccc(cc3c2)CCn2nc(ccc2=O)-c2ccc1c(C(F)(F)F)c2", "TESTED SYSTEM": "UniProt P30530", "IC50, nM": 401}
